Molecular target: Induced myeloid leukemia cell differentiation protein Mcl-1 (Homo sapiens)
Sequence (Q07820 whole entry): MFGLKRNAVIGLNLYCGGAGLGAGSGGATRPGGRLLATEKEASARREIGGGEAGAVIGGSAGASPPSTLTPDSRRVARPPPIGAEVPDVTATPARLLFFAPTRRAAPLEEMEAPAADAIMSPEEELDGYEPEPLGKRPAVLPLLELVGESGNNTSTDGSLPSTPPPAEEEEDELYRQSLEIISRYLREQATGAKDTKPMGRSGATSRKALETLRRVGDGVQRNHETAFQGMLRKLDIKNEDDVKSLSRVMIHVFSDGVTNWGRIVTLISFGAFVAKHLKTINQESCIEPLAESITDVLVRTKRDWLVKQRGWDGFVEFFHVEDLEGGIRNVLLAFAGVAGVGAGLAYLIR
Assay: Displacement of FAM-Bid BH3 peptide from recombinant Mcl-1 (unknown origin) expressed in Escherichia coli BL21 after 10 mins by fluorescence polarization assay
MEASURED ATTRIBUTE: Ki (nM)

{"columns": ["SMILES STRING", "Ki [nM]"],
 "data": [
  ["Cc1ccc(O)c(Cn2c(-c3ccccc3)nc3c(O)c(O)c(O)cc3c2=O)c1", 123],
  ["CC(C)c1ccc(O)c(Cn2c(-c3ccccc3)nc3c(O)c(O)c(O)cc3c2=O)c1", 609],
  ["O=C(Nc1c(C(=O)NCCCc2ccccc2)cc(O)c(O)c1O)c1ccccc1", 3240],
  ["O=c1c2cc(O)c(O)c(O)c2nc(-c2ccccc2)n1Cc1ccccc1", 1210],
  ["CCCCNC(=O)c1cc(O)c(O)c(O)c1NC(=O)c1ccccc1", 1980],
  ["O=C(Nc1c(C(=O)NCc2ccccc2)cc(O)c(O)c1O)c1ccccc1", 2820]
]}

I = O=C1c2ccccc2C(=O)c2c1cc(O)c(O)c2O
II = O=c1[nH]cnc2c(O)c(O)c(O)cc12
Between I and II , whose measured Ki reads higher? Use the label to indicate which entry you chose.
II
(II: 5980 nM, I: 1210 nM)
